- experimental_system: Sigma non-opioid intracellular receptor 1 (Cavia porcellus)
- Sequence (Q60492 whole entry): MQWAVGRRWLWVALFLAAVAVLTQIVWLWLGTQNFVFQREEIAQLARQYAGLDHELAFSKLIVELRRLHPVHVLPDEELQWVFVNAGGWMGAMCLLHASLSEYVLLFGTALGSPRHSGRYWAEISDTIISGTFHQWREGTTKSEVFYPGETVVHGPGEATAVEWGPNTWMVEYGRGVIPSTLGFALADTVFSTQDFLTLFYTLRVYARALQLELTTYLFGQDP
- assay_method_text: Displacement of [3H]-(+)-pentazocine from sigma-1 receptor in guinea pig brain membranes after 150 mins by liquid scintillation counting method
The threshold is 0.04 µM. Values of Ki beneath it are tagged true (1); values meeting or exceeding it are tagged false (0).

Hi there! Is Ki for c1ccc(CN2CCN(CC3COc4ccccc4O3)CC2)cc1 (centres undefined) below 0.04 µM, do you know?
true (1)

Hi there! Is Ki for c1ccc(CC2CCN(C[C@@H]3CO[C@@](c4ccccc4)(C4CCCCC4)O3)CC2)cc1 (relative stereo) below 0.04 µM, do you know?
false (0)

Hi there! Is Ki for "c1ccc(CC2CCN(CCOC(c3ccccc3)c3ccccc3)CC2)cc1" below 0.04 µM, do you know?
false (0)

Hi there! Is Ki for c1ccc(CC2CCN(CC3CSC(c4ccccc4)(c4ccccc4)O3)CC2)cc1 (centres undefined) below 0.04 µM, do you know?
true (1)

Hi there! Is Ki for c1ccc(CC2CCN(CC3COC(c4ccccc4)(c4ccccc4)O3)CC2)cc1 (centres undefined) below 0.04 µM, do you know?
true (1)

Hi there! Is Ki for c1ccc(CC2CCN(CC3COC4(CCCCC4)O3)CC2)cc1 (centres undefined) below 0.04 µM, do you know?
true (1)

Hi there! Is Ki for O[C@H]1[C@@H](CN2CCN(Cc3ccccc3)CC2)CCC1(c1ccccc1)c1ccccc1 (relative stereo) below 0.04 µM, do you know?
true (1)

Hi there! Is Ki for O[C@@H]1[C@@H](CN2CCN(Cc3ccccc3)CC2)CCC1(c1ccccc1)c1ccccc1 (relative stereo) below 0.04 µM, do you know?
true (1)

Hi there! Is Ki for O=C1C(CN2CCC(Cc3ccccc3)CC2)CCC1(c1ccccc1)c1ccccc1 (centres undefined) below 0.04 µM, do you know?
false (0)
